EXPERIMENT_DESCRIPTION: Antiproliferative activity against human EAhy926 cells
Type: functional, cell-based
CONDITION_SET: EA.hy 926
READOUT_TYPE: pIC50
Keep in mind that pIC50 stands for -log10 of concentration in molar terms.

stdin: Sample CC(C)(C)OC(=O)NCCNc1ccc2c(c1)C(=O)N(C1CCC(=O)NC1=O)C2=O (stereo not drawn) — what was its pIC50?
stdout: 4.39

stdin: Sample NCCNc1cccc2c1C(=O)N(C1CCC(=O)NC1=O)C2=O (stereo not drawn) — what was its pIC50?
stdout: 3.82

stdin: Sample O=C1CCC(N2C(=O)c3ccccc3C2=O)C(=O)N1 (stereo not drawn) [THALIDOMIDE] — what was its pIC50?
stdout: 3.70
